From: the supplement of paper PMC11908140

B1: library; numbered along this chain (parent)
chain: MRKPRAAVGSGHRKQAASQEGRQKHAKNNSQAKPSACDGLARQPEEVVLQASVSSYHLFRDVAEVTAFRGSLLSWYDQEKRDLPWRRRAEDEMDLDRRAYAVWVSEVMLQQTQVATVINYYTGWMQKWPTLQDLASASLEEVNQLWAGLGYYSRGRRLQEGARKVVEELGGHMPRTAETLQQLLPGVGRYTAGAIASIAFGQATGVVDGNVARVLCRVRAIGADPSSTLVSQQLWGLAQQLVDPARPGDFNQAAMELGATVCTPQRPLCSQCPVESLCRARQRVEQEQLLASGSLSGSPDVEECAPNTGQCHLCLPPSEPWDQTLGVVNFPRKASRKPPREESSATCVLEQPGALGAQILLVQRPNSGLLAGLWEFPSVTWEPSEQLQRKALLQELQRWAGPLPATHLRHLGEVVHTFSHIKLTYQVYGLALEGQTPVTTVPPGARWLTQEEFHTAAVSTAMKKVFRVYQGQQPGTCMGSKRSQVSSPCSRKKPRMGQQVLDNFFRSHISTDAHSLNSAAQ

- Variants of: B1
- assay-method-text: 8OG:A repair function score (normalized; synonymous = 0, nonsense = -1) (normalized log-likelihood score); higher = more repair activity (WT-like);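 further: cells sorted at 72 h after reporter transfection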
- condition-description: with 8OG:A DNA repair reporter (GFP) in HEK-293 MUTYH KO cells
property: 8OG:A repair function score

>>> df
   variant_descriptor  readout_number
0                D94Y           -0.33
1               L430D          -0.393
2               E395M          -0.253
3               L408I           0.246
4               G193W          -0.832
5               F504E          0.0256
